Test system: NCI-H1299
experiment: Antiproliferative activity against human H1299 cells after 48 hrs by MTS assay
Assay type: functional, cell-based
experimental.setup: NCI-H1299, 48 h
measured.attribute: IC50 (nM)

INSERT INTO measurements (compound, readout_value) VALUES
  ('O=S(=O)(Nc1ccc(C2(O)CSC(=S)N2Cc2cccnc2)cc1)c1cccc2ccccc12 (centres undefined)', 1530),
  ('O=S(=O)(Nc1ccc(C2(O)CSC(=S)N2Cc2cnccn2)cc1)c1ccc2c(c1)OCCO2 (centres undefined)', 1720),
  ('O=S(=O)(Nc1ccc(C2(O)CSC(=S)N2Cc2cccnc2)cc1)c1ccc2ccccc2c1 (centres undefined)', 810),
  ('N#Cc1ccc(S(=O)(=O)Nc2ccc(C3(O)CSC(=S)N3Cc3cccnc3)cc2)cc1 (centres undefined)', 1470);
